Data provenance is a melting point compilation (Tetko et al.).

This section presents compounds with their documented melting point values.

compound: CC(=O)OC1CCC2(C)C(=CCC3C2CCC2(C)C(C(C)=O)CCC32)C1 (stereo unspecified)
melting point: 149 to 152 °C

compound: CC(CCC(=O)O)C1CCC2C3CC(O)C4=CC(O)CCC4(C)C3CCC12C (stereo unspecified)
melting point: 200 to 201 °C

compound: Cc1cc2occ(C#N)c(=O)c2cc1C
melting point: 206 to 210 °C

compound: NNc1nc(-c2ccccc2)c2c(N)n[nH]c2n1
melting point: 241 to 244 °C

// query Which melting point value is on record for O=Cc1cccc(-c2ccsc2)c1 ?
// result 48 to 49 °C

// query # get_value(readout='melting point', item= O=C(Nc1cccnc1Cl)c1ccc(Cl)cc1Cl )
// result 148 to 150 °C
